Test system: E. Faecium (EFAE 12712)
assay.method.text: MIC, standard agar dilution method
Assay type: cell-based
experimental.setup: Enterococcus faecium; Table II; key: E. Faecium; agar dilution, Mueller Hinton agar, incubated overnight at 35° C.; read-out: EFAE 12712 MIC
Each entry below lists one item and its recorded MIC value.
Return type: number; implicit unit µg/mL.

Recorded MIC, per entry:
1) O=C1O[C@@H](CNC=S)CN1c1ccc(N2CCOCC2)c(F)c1; 2
2) CC(=S)NC[C@H]1CN(c2ccc([C@H]3CC[S@+]([O-])CC3)c(F)c2)C(=O)O1; 0.25
3) NC(=S)NC[C@H]1CN(c2ccc(N3CCN(C(=O)CO)CC3)c(F)c2)C(=O)O1; 1
4) CCC(=S)NC[C@H]1CN(c2ccc(N3CCOCC3)c(F)c2)C(=O)O1; 1
5) NC(=S)NC[C@H]1CN(c2ccc(C3CC[S+]([O-])CC3)c(F)c2)C(=O)O1 (stereo partly drawn); 0.5

QUERY: Requested field: MIC. Item: `CC(=S)NC[C@H]1CN(c2ccc(N3CCN(C(=O)CO)CC3)c(F)c2)C(=O)O1`
RESULT: 0.5

====

Test system: Haemophilus influenzae (HINF 30063)
assay.endpoint: MIC (µg/mL)
Return type: number; implicit unit µg/mL.

Recorded MIC, per entry:
1. CC(=S)NC[C@H]1CN(c2ccc(C3CCS(=O)(=O)CC3)c(F)c2)C(=O)O1 [Example 11]; 2
2. CC(=S)NC[C@H]1CN(c2ccc([C@H]3CC[S@+]([O-])CC3)c(F)c2)C(=O)O1 [Example 9]; 2
3. CC(=S)NC[C@H]1CN(c2ccc3c(c2)CCN3C(=O)CO)C(=O)O1 [Example 24]; 4
4. NC(=S)NC[C@H]1CN(c2ccc3c(c2)CCN3C(=O)CO)C(=O)O1 [Example 32]; 8
5. CC(=S)NC[C@H]1CN(c2ccc([C@H]3CC[S@@+]([O-])CC3)c(F)c2)C(=O)O1 [Example 7]; 4

QUERY: Item CC(=S)NC[C@H]1CN(c2ccc(N3CC[S+]([O-])CC3)c(F)c2)C(=O)O1 [Example 27] with Haemophilus influenzae (HINF 30063) - MIC?
RESULT: 4

QUERY: Item CNC(=S)NC[C@H]1CN(c2ccc(N3CCOCC3)c(F)c2)C(=O)O1 [Example 6] with Haemophilus influenzae (HINF 30063) - MIC?
RESULT: 16

====

Each entry below lists one item and its recorded MIC value.
Test system: Haemophilus influenzae (HINF 30063)

1) CC(=S)NC[C@H]1CN(c2ccc(N3CCN(c4nnc(C)s4)CC3)c(F)c2)C(=O)O1 [Example 2]; > 16 µg/mL
2) O=C1O[C@@H](CNC(=S)C(F)(F)F)CN1c1ccc(N2CCOCC2)c(F)c1 [Example 16]; > 64 µg/mL

From here, focus on the item given below.
QUERY: Requested field: MIC. Item: O=C1O[C@@H](CNC(=S)CCl)CN1c1ccc(N2CCOCC2)c(F)c1 [Example 15]
RESULT: > 64 µg/mL
